Test system: Escherichia coli
Assay: Antibacterial activity against Escherichia coli ATCC 25922 at 50 to 100 ug/ml by cup-plate method
Assay type: functional
readout: Activity (%)
// units = %; emit number, no label

Short answer for O=c1c2cc(Br)ccc2nc(Cc2ccccc2Nc2c(Cl)cccc2Cl)n1-c1ccc(/N=C/c2ccccc2O)cc1 : Activity was 36.74

Short answer for O=C1C(Cl)C(c2ccc(Cl)cc2)N1c1ccc(-n2c(Cc3ccccc3Nc3c(Cl)cccc3Cl)nc3ccc(Br)cc3c2=O)cc1 (centres undefined) : Activity was 51.09

Short answer for O=c1c2cc(Br)ccc2nc(Cc2ccccc2Nc2c(Cl)cccc2Cl)n1-c1ccc(/N=C/c2ccccc2[N+](=O)[O-])cc1 : Activity was 32.65

Short answer for COc1ccc(C2C(Cl)C(=O)N2c2ccc(-n3c(Cc4ccccc4Nc4c(Cl)cccc4Cl)nc4ccc(Br)cc4c3=O)cc2)cc1 (centres undefined) : Activity was 53.33

* * *

Tested on: Pseudomonas aeruginosa
Experiment: Antibacterial activity against Pseudomonas aeruginosa ATCC 9027 at 50 to 100 ug/ml by cup-plate method
Type: functional
readout: Activity (%)
// units = %; emit number, no label

Short answer for COc1ccc(/C=N/c2ccc(-n3c(Cc4ccccc4Nc4c(Cl)cccc4Cl)nc4ccc(Br)cc4c3=O)cc2)cc1 : Activity was 52.88

Short answer for COc1ccc(C2C(Cl)C(=O)N2c2ccc(-n3c(Cc4ccccc4Nc4c(Cl)cccc4Cl)nc4ccc(Br)cc4c3=O)cc2)c(O)c1 (centres undefined) : Activity was 50.98

Short answer for O=C1C(Cl)C(c2ccc(O)cc2)N1c1ccc(-n2c(Cc3ccccc3Nc3c(Cl)cccc3Cl)nc3ccc(Br)cc3c2=O)cc1 (centres undefined) : Activity was 58.33

Short answer for O=C1C(Cl)C(c2ccccc2Cl)N1c1ccc(-n2c(Cc3ccccc3Nc3c(Cl)cccc3Cl)nc3ccc(Br)cc3c2=O)cc1 (centres undefined) : Activity was 58.33

* * *

System: Candida albicans
Test: Antifungal activity against Candida albicans ATCC 10231 at 100 ug/ml by cup-plate method
Type: functional
Details: read-out: IZ
readout: zone of inhibition at 100 µg/mL (mm)
// units = mm; emit number, no label

Short answer for O=C1C(Cl)C(c2ccc(Cl)cc2)N1c1ccc(-n2c(Cc3ccccc3Nc3c(Cl)cccc3Cl)nc3ccc(Br)cc3c2=O)cc1 (configuration not stated) : zone of inhibition at 100 µg/mL was 5

Short answer for COc1cc(/C=N/c2ccc(-n3c(Cc4ccccc4Nc4c(Cl)cccc4Cl)nc4ccc(Br)cc4c3=O)cc2)cc(OC)c1OC : zone of inhibition at 100 µg/mL was 2

Short answer for O=C1C(Cl)C(c2ccccc2Cl)N1c1ccc(-n2c(Cc3ccccc3Nc3c(Cl)cccc3Cl)nc3ccc(Br)cc3c2=O)cc1 (configuration not stated) : zone of inhibition at 100 µg/mL was 3

Short answer for O=C1C(Cl)C(c2ccccc2O)N1c1ccc(-n2c(Cc3ccccc3Nc3c(Cl)cccc3Cl)nc3ccc(Br)cc3c2=O)cc1 (configuration not stated) : zone of inhibition at 100 µg/mL was 0

Short answer for O=C1C(Cl)C(c2ccccc2[N+](=O)[O-])N1c1ccc(-n2c(Cc3ccccc3Nc3c(Cl)cccc3Cl)nc3ccc(Br)cc3c2=O)cc1 (configuration not stated) : zone of inhibition at 100 µg/mL was 2

Short answer for CN(C)c1ccc(C2C(Cl)C(=O)N2c2ccc(-n3c(Cc4ccccc4Nc4c(Cl)cccc4Cl)nc4ccc(Br)cc4c3=O)cc2)cc1 (configuration not stated) : zone of inhibition at 100 µg/mL was 1

Short answer for O=c1c2cc(Br)ccc2nc(Cc2ccccc2Nc2c(Cl)cccc2Cl)n1-c1ccc(/N=C/c2ccccc2O)cc1 : zone of inhibition at 100 µg/mL was 1

* * *

System: Escherichia coli
Assay: Antibacterial activity against Escherichia coli ATCC 25922 at 100 ug/ml by cup-plate method
Format: functional
Details: read-out: IZ
Label scheme, based on zone of inhibition at 100 µg/mL: band A: < 4 mm; band B: ≥ 4 mm and < 7 mm; band C: ≥ 7 mm

Please report the category associated with O=C1C(Cl)C(c2ccccc2O)N1c1ccc(-n2c(Cc3ccccc3Nc3c(Cl)cccc3Cl)nc3ccc(Br)cc3c2=O)cc1 (stereo not drawn) , nothing else. band B

Please report the category associated with O=c1c2cc(Br)ccc2nc(Cc2ccccc2Nc2c(Cl)cccc2Cl)n1-c1ccc(/N=C/c2cccc([N+](=O)[O-])c2)cc1 , nothing else. band A

Please report the category associated with O=C1C(Cl)C(c2ccccc2Cl)N1c1ccc(-n2c(Cc3ccccc3Nc3c(Cl)cccc3Cl)nc3ccc(Br)cc3c2=O)cc1 (stereo not drawn) , nothing else. band B

Please report the category associated with O=c1c2cc(Br)ccc2nc(Cc2ccccc2Nc2c(Cl)cccc2Cl)n1-c1ccc(/N=C/c2ccccc2Cl)cc1 , nothing else. band B

Please report the category associated with COc1ccc(/C=N/c2ccc(-n3c(Cc4ccccc4Nc4c(Cl)cccc4Cl)nc4ccc(Br)cc4c3=O)cc2)cc1 , nothing else. band C

Please report the category associated with CCN(CC)c1ccc(/C=N/c2ccc(-n3c(Cc4ccccc4Nc4c(Cl)cccc4Cl)nc4ccc(Br)cc4c3=O)cc2)c(O)c1 , nothing else. band A

Please report the category associated with O=C1C(Cl)C(c2ccccc2[N+](=O)[O-])N1c1ccc(-n2c(Cc3ccccc3Nc3c(Cl)cccc3Cl)nc3ccc(Br)cc3c2=O)cc1 (stereo not drawn) , nothing else. band B

Please report the category associated with COc1ccc(C2C(Cl)C(=O)N2c2ccc(-n3c(Cc4ccccc4Nc4c(Cl)cccc4Cl)nc4ccc(Br)cc4c3=O)cc2)cc1 (stereo not drawn) , nothing else. band C

Please report the category associated with O=c1c2cc(Br)ccc2nc(Cc2ccccc2Nc2c(Cl)cccc2Cl)n1-c1ccc(/N=C/c2ccccc2O)cc1 , nothing else. band B

Please report the category associated with COc1ccc(/C=N/c2ccc(-n3c(Cc4ccccc4Nc4c(Cl)cccc4Cl)nc4ccc(Br)cc4c3=O)cc2)c(O)c1 , nothing else. band B

Please report the category associated with CN(C)c1ccc(/C=N/c2ccc(-n3c(Cc4ccccc4Nc4c(Cl)cccc4Cl)nc4ccc(Br)cc4c3=O)cc2)cc1 , nothing else. band A

Please report the category associated with CCN(CC)c1ccc(C2C(Cl)C(=O)N2c2ccc(-n3c(Cc4ccccc4Nc4c(Cl)cccc4Cl)nc4ccc(Br)cc4c3=O)cc2)c(O)c1 (stereo not drawn) , nothing else. band A

Please report the category associated with CC1(C)S[C@@H]2[C@H](NC(=O)Cc3ccccc3)C(=O)N2[C@H]1C(=O)O , nothing else. band C

Please report the category associated with O=C1C(Cl)C(c2ccc(O)cc2)N1c1ccc(-n2c(Cc3ccccc3Nc3c(Cl)cccc3Cl)nc3ccc(Br)cc3c2=O)cc1 (stereo not drawn) , nothing else. band B

Please report the category associated with CN(C)c1ccc(C2C(Cl)C(=O)N2c2ccc(-n3c(Cc4ccccc4Nc4c(Cl)cccc4Cl)nc4ccc(Br)cc4c3=O)cc2)cc1 (stereo not drawn) , nothing else. band A

* * *

Tested on: Staphylococcus aureus
Test: Antibacterial activity against Staphylococcus aureus ATCC 9144 at 50 to 100 ug/ml by cup-plate method
Type: functional
readout: Activity
# do not omit the unit; it follows the number

Short answer for COc1cc(/C=N/c2ccc(-n3c(Cc4ccccc4Nc4c(Cl)cccc4Cl)nc4ccc(Br)cc4c3=O)cc2)cc(OC)c1OC : Activity was 50.98%

Short answer for CN(C)c1ccc(C2C(Cl)C(=O)N2c2ccc(-n3c(Cc4ccccc4Nc4c(Cl)cccc4Cl)nc4ccc(Br)cc4c3=O)cc2)cc1 (configuration not stated) : Activity was 0%

Short answer for CCN(CC)c1ccc(C2C(Cl)C(=O)N2c2ccc(-n3c(Cc4ccccc4Nc4c(Cl)cccc4Cl)nc4ccc(Br)cc4c3=O)cc2)c(O)c1 (configuration not stated) : Activity was 0%

Short answer for O=C1C(Cl)C(c2ccc(Cl)cc2)N1c1ccc(-n2c(Cc3ccccc3Nc3c(Cl)cccc3Cl)nc3ccc(Br)cc3c2=O)cc1 (configuration not stated) : Activity was 66.67%

Short answer for O=C1C(Cl)C(c2ccccc2Cl)N1c1ccc(-n2c(Cc3ccccc3Nc3c(Cl)cccc3Cl)nc3ccc(Br)cc3c2=O)cc1 (configuration not stated) : Activity was 65.76%

Short answer for O=C1C(Cl)C(c2ccc(O)cc2)N1c1ccc(-n2c(Cc3ccccc3Nc3c(Cl)cccc3Cl)nc3ccc(Br)cc3c2=O)cc1 (configuration not stated) : Activity was 44.44%

Short answer for O=c1c2cc(Br)ccc2nc(Cc2ccccc2Nc2c(Cl)cccc2Cl)n1-c1ccc(/N=C/c2ccccc2O)cc1 : Activity was 42.87%

* * *

Test system: Escherichia coli
Experiment: Antibacterial activity against Escherichia coli ATCC 25922 at 50 to 100 ug/ml by cup-plate method
Assay type: functional
Sorting guide: entries reporting Activity beneath 40% go in the YES pile, the rest go in the NO pile.

Lab note: confirm whether the reported Activity for this molecule is below 40%, equality not counting. molecule: CN(C)c1ccc(C2C(Cl)C(=O)N2c2ccc(-n3c(Cc4ccccc4Nc4c(Cl)cccc4Cl)nc4ccc(Br)cc4c3=O)cc2)cc1 (configuration not stated) YES

Lab note: confirm whether the reported Activity for this molecule is below 40%, equality not counting. molecule: CCN(CC)c1ccc(/C=N/c2ccc(-n3c(Cc4ccccc4Nc4c(Cl)cccc4Cl)nc4ccc(Br)cc4c3=O)cc2)c(O)c1 YES

Lab note: confirm whether the reported Activity for this molecule is below 40%, equality not counting. molecule: COc1ccc(/C=N/c2ccc(-n3c(Cc4ccccc4Nc4c(Cl)cccc4Cl)nc4ccc(Br)cc4c3=O)cc2)cc1 NO

Lab note: confirm whether the reported Activity for this molecule is below 40%, equality not counting. molecule: O=C1C(Cl)C(c2ccccc2Cl)N1c1ccc(-n2c(Cc3ccccc3Nc3c(Cl)cccc3Cl)nc3ccc(Br)cc3c2=O)cc1 (configuration not stated) NO

Lab note: confirm whether the reported Activity for this molecule is below 40%, equality not counting. molecule: COc1ccc(C2C(Cl)C(=O)N2c2ccc(-n3c(Cc4ccccc4Nc4c(Cl)cccc4Cl)nc4ccc(Br)cc4c3=O)cc2)c(O)c1 (configuration not stated) NO

Lab note: confirm whether the reported Activity for this molecule is below 40%, equality not counting. molecule: O=c1c2cc(Br)ccc2nc(Cc2ccccc2Nc2c(Cl)cccc2Cl)n1-c1ccc(/N=C/c2ccccc2Cl)cc1 YES

Lab note: confirm whether the reported Activity for this molecule is below 40%, equality not counting. molecule: O=C1C(Cl)C(c2ccccc2O)N1c1ccc(-n2c(Cc3ccccc3Nc3c(Cl)cccc3Cl)nc3ccc(Br)cc3c2=O)cc1 (configuration not stated) NO
